B1: EHEE_rd4_0726 (parent)
chain: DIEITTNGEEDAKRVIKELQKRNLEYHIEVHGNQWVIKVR

variants of: B1; experiment: folding stability dG (cDNA display proteolysis); higher = more stable; details: PBS, room temperature
Measurement Name: folding stability dG (kcal/mol)

Variant String | Measured
D1K | 1.97
N23R | 2.43
V15L | 2.2
K17L | 2.74
R40D | 1.59
E9S | 1.86
E3K | 2.18
D1W | 4.08
I16Q | 0.929
R40H | 2.74
E3I | 3.45
L24Q | 1.45
E29S | 2.14
N7K | 2.1
T5M | 2.39
E9M | 2.12
E18S | 2.04
G8E | 1.77
V39I | 2.58
D1Y | 3.38
D1Q | 2.36
V30M | 2.01
E10L | 2.15
V30A | 1.41
V39M | 1.44
H27M | 2.54
E29T | 2.33
R40Q | 2.11
I16V | 1.94
I16G | 0.895
I2D | 1.41
G32I | 1.21
W35F | 1.79
E18I | 2.68
I16W | 0.844
